# ASSAY TARGET: Alpha-1A adrenergic receptor (Homo sapiens, UniProt P35348)
# Sequence (P35348 whole entry): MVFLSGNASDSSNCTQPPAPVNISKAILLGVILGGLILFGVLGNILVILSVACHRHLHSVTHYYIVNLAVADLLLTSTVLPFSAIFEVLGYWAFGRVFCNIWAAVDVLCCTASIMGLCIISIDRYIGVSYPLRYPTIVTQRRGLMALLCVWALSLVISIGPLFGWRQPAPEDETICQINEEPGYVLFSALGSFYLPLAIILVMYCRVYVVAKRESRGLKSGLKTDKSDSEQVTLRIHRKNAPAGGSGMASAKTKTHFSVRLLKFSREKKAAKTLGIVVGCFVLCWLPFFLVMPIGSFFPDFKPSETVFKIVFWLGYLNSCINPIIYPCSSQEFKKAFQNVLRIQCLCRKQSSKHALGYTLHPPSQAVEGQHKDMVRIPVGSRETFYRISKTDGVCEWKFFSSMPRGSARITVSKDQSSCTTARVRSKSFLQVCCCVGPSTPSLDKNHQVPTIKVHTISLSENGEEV
# TEST METHOD NOTES: Displacement of [3H]prazosin from human alpha1A adrenergic receptor expressed in CHO cell membranes after 30 mins by rapid filtration method
Ki strictly under 6 nM means rule met; at 6 nM or over means rule not met.

| CHEMICAL STRUCTURE | DISCRETE LABEL |
| --- | --- |
| CCCCCC(=O)N1CCN(c2nc(N)c3cc(OC)c(OC)cc3n2)[C@@H]2CCCC[C@@H]21 | rule met |
| COc1cc2nc(N3CCN(C(=O)C(C)(C)C)[C@H]4CCCC[C@H]43)nc(N)c2cc1OC | rule not met |
| CCCN(CCC)c1nc(N2CCN(C(=O)c3ccco3)[C@@H]3CCCC[C@@H]32)nc2cc(OC)c(OC)cc12 | rule met |
| COc1cc2nc(N3CCN(C(C)=O)[C@H]4CCCC[C@H]43)nc(N)c2cc1OC | rule not met |
| COc1cc2nc(N3CCN(C(C)=O)[C@@H]4CCCC[C@@H]43)nc(N)c2cc1OC | rule not met |
| COc1cc2nc(N3CCN(C(=O)OCc4ccccc4)[C@H]4CCCC[C@H]43)nc(N)c2cc1OC | rule met |
| COc1cc2nc(N3CCN(C(=O)OCc4ccccc4)[C@@H]4CCCC[C@@H]43)nc(N)c2cc1OC | rule met |
| COc1cc2nc(N3CCN(C(=O)c4ccco4)[C@@H]4CCCC[C@@H]43)nc(N)c2cc1OC | rule met |
| CCCN(CCC)c1nc(N2CCN(C(=O)c3ccco3)[C@H]3CCCC[C@H]32)nc2cc(OC)c(OC)cc12 | rule not met |
| COc1cc2nc(N3CCN(C(=O)COc4c(OC)cccc4C(C)C)[C@H]4CCCC[C@H]43)nc(N)c2cc1OC | rule met |
| COc1cc2nc(N3CCN(C(=O)Cc4ccc5ccccc5c4)[C@H]4CCCC[C@H]43)nc(N)c2cc1OC | rule not met |

---

# Organism: Rattus norvegicus
# TEST METHOD NOTES: Selectivity ratio of compound effect for antagonism of alpha1B adrenergic receptor in Wistar rat spleen to compound effect for antagonism of alpha1D adrenergic receptor in Wistar rat thoracic aorta
Selectivity ratio strictly under 1 means 1; at 1 or over means -1.

| COMPOUND | DISCRETE LABEL |
| --- | --- |
| COc1cc2nc(N3CCN(C(=O)OCc4ccccc4)[C@H]4CCCC[C@H]43)nc(N)c2cc1OC | -1 |
| COc1cc2nc(N3CCN(C(=O)Cc4ccc5ccccc5c4)[C@H]4CCCC[C@H]43)nc(N)c2cc1OC | -1 |
| CCCN(CCC)c1nc(N2CCN(C(=O)c3ccco3)[C@H]3CCCC[C@H]32)nc2cc(OC)c(OC)cc12 | -1 |
| COc1cc2nc(N3CCN(C(=O)C4COc5ccccc5O4)[C@H]4CCCC[C@H]43)nc(N)c2cc1OC (single isomer, unassigned; (-)) | -1 |
| COc1cc2nc(N3CCN(C(C)=O)[C@@H]4CCCC[C@@H]43)nc(N)c2cc1OC | -1 |
| COc1cc2nc(N3CCN(C(=O)COc4c(OC)cccc4C(C)C)[C@H]4CCCC[C@H]43)nc(N)c2cc1OC | 1 |
| COc1cc2nc(N3CCN(C(=O)OCc4ccccc4)[C@@H]4CCCC[C@@H]43)nc(N)c2cc1OC | 1 |

The values you see were collected from ChEMBL document CHEMBL4118202.
